All values here come from ChEMBL document CHEMBL4823307.

test: Metabolic stability in human liver microsomes assessed as intrinsic clearance at 2 ug/ml measured up to 45 mins by LC-MS/MS analysis; format: ADME, Microsome; settings: dose 2 µg/ml, read-out: CLH
For each of the molecules below, state its microsomal CLint at 2 ug/ml.
Answers are plain numbers, in µL/min/mg.

Worked examples follow.
O=C(C1CC1)N1CCN(Cc2nc3ccccc3n2Cc2ccccc2Cl)CC1 | 88
O=C(C1CC1)N1CCN(Cc2nc3ccccc3n2Cc2cccc(C(F)(F)F)c2)CC1 | 104

Field: next molecule
Consider the molecule Cc1cccc(Cn2c(CN3CCN(C(=O)C4CC4)CC3)nc3ccccc32)c1 . State its measured microsomal CLint at 2 ug/ml.
80

----------
assay: Cytotoxicity against human HepG2 cells assessed as cell viability at 10 uM incubated for 24 hrs by MTT assay relative to control; type: cell-based; conditions: read-out: Activity
endpoint name: viability at 24 h, 10 µM (%)
Numbers only, in %.

CC(C)CCn1c(CN2CCN(C(=O)c3ccco3)CC2)nc2c1c(=O)n(C)c(=O)n2C | 98.2
Cc1cccc(Cn2c(CN3CCN(C(=O)C(C)C)CC3)nc3ccccc32)c1 | 85.7

Answer for every listed entry: what is its viability at 24 h, 10 µM? The entries follow.
1. O=C(C1CC1)N1CCN(Cc2nc3ccccc3n2Cc2ccccc2Cl)CC1
2. Cc1cccc(Cn2c(CN3CCN(C(=O)C4CC4)CC3)nc3ccccc32)c1
3. CCC(=O)N1CCN(Cc2nc3ccccc3n2Cc2cccc(C)c2)CC1
4. O=C(C1CC1)N1CCN(Cc2nc3ccccc3n2Cc2cccc(C(F)(F)F)c2)CC1

[85.7, 90, 85.4, 90]

----------
Target: Aldehyde dehydrogenase 1A1 (Homo sapiens)
Sequence (whole entry): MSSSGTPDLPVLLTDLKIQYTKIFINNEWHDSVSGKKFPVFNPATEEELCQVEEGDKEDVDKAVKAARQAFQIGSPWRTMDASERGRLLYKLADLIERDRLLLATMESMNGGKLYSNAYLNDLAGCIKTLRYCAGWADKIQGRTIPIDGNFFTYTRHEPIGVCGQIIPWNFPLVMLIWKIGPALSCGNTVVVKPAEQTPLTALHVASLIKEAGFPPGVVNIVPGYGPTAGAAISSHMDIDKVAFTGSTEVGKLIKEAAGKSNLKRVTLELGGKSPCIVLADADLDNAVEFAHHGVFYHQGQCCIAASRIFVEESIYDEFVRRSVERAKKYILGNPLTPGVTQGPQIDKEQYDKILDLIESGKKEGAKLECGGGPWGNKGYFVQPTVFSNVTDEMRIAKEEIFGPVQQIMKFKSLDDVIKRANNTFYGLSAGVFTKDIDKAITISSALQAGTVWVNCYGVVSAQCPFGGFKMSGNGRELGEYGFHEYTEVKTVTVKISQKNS
Experiment: Inhibition of human ALDH1A1 assessed as NADH formation using propionaldehyde as substrate at 10 uM by spectrophotometry
endpoint name: inhibition (%)
Answers are plain numbers, in %.

Cc1cccc(Cn2c(CN3CCN(C(=O)c4ccc(Cl)cc4)CC3)nc3ccccc32)c1 | 23.2
Cc1cccc(Cn2c(CN3CCN(C(=O)c4ccc(C(F)(F)F)cc4)CC3)nc3ccccc32)c1 | 22.9
O=C(C1CC1)N1CCN(Cc2nc3ccccc3n2Cc2cccc(Cl)c2)CC1 | 71.6
CCC(=O)N1CCN(Cc2nc3ccccc3n2Cc2cccc(C)c2)CC1 | 85.1
COc1ccc(C(=O)N2CCN(Cc3nc4ccccc4n3Cc3cccc(C)c3)CC2)cc1 | 55.5

Answer for every listed entry: what is its inhibition? The entries follow.
1. CCn1c(CN2CCN(C(=O)C3CC3)CC2)nc2ccccc21
2. Cc1cccc(Cn2c(CN3CCN(C(=O)C(C)C)CC3)nc3ccccc32)c1

20.8
87.2

Answer for every listed entry: what is its inhibition? The entries follow.
1. CCCC(=O)N1CCN(Cc2nc3ccccc3n2Cc2cccc(C)c2)CC1
2. Cc1cccc(Cn2c(CN3CCN(C(=O)c4ccc(Br)cc4)CC3)nc3ccccc32)c1
3. Cc1cccc(Cn2c(OC3CCN(C(=O)c4ccco4)CC3)nc3ccccc32)c1

[79, 25.8, 68.3]

Answer for every listed entry: what is its inhibition? The entries follow.
1. Cc1cccc(Cn2c(CN3CCN(C(=O)c4cccnc4)CC3)nc3ccccc32)c1
2. O=C(C1CC1)N1CCN(Cc2nc3ccccc3n2Cc2ccccc2)CC1

1: 24.5; 2: 23.9

----------
target: Aldehyde dehydrogenase 1A1 (Homo sapiens) (UniProt P00352); assay: Inhibition of human ALDH1A1 assessed as NADH formation using propionaldehyde as substrate at 10 uM by spectrophotometry
endpoint name: inhibition (%)
Numbers only, in %.

Worked examples follow.
O=C(C1CC1)N1CCN(Cc2nc3ccccc3n2CC2CC2)CC1 | 21.2
Cc1cccc(Cn2c(NC3CCN(C(=O)C4CC4)CC3)nc3ccccc32)c1 | 49.1
Cc1cccc(Cn2c(CN3CCN(C(=O)C4CCCC4)CC3)nc3ccccc32)c1 | 67.5
CC(C)Cn1c(CN2CCN(C(=O)C3CC3)CC2)nc2ccccc21 | 13.1
Cc1cccc(Cn2c(CN3CCN(C(=O)c4ccccc4)CC3)nc3ccccc32)c1 | 60.9
Cc1cccc(Cn2c(OC3CCN(C(=O)C4CC4)CC3)nc3ccccc32)c1 | 80.6
Cc1cccc(Cn2c(CN3CCN(C(=O)c4ccc(F)cc4)CC3)nc3ccccc32)c1 | 27.1
Cc1cccc(Cn2c(CN3CCN(C(=O)c4cccs4)CC3)nc3ccccc32)c1 | 60.8

Answer for every listed entry: what is its inhibition? The entries follow.
1. Cc1cccc(Cn2c(CN3CCN(C(=O)c4ccc(C(C)C)cc4)CC3)nc3ccccc32)c1
2. Cc1cccc(Cn2c(CN3CCN(C(=O)c4ccncc4)CC3)nc3ccccc32)c1

67.6
20.6

----------
test: Cytotoxicity against human HepG2 cells assessed as cell viability at 0.1 uM incubated for 24 hrs by MTT assay relative to control; type: cell-based; conditions: read-out: Activity
endpoint name: viability at 24 h, 0.1 µM (%)
Answers are plain numbers, in %.

O=C(C1CC1)N1CCN(Cc2nc3ccccc3n2Cc2cccc(C(F)(F)F)c2)CC1 | 95.9

Answer for every listed entry: what is its viability at 24 h, 0.1 µM? The entries follow.
1. Cc1cccc(Cn2c(CN3CCN(C(=O)C4CC4)CC3)nc3ccccc32)c1
2. CC(C)CCn1c(CN2CCN(C(=O)c3ccco3)CC2)nc2c1c(=O)n(C)c(=O)n2C
3. CCC(=O)N1CCN(Cc2nc3ccccc3n2Cc2cccc(C)c2)CC1

1. 93.4
2. 100
3. 89.7

Answer for every listed entry: what is its viability at 24 h, 0.1 µM? The entries follow.
1. Cc1cccc(Cn2c(CN3CCN(C(=O)C(C)C)CC3)nc3ccccc32)c1
2. O=C(C1CC1)N1CCN(Cc2nc3ccccc3n2Cc2ccccc2Cl)CC1

[98.4, 93.8]

----------
assay: Cytotoxicity against human HepG2 cells assessed as cell viability at 1 uM incubated for 24 hrs by MTT assay relative to control; type: cell-based; settings: read-out: Activity
endpoint name: viability at 24 h, 1 µM
# answer = value followed by unit

O=C(C1CC1)N1CCN(Cc2nc3ccccc3n2Cc2ccccc2Cl)CC1 | 91.9%
CCC(=O)N1CCN(Cc2nc3ccccc3n2Cc2cccc(C)c2)CC1 | 91.8%
CC(C)CCn1c(CN2CCN(C(=O)c3ccco3)CC2)nc2c1c(=O)n(C)c(=O)n2C | 100%
Cc1cccc(Cn2c(CN3CCN(C(=O)C4CC4)CC3)nc3ccccc32)c1 | 91.3%
Cc1cccc(Cn2c(CN3CCN(C(=O)C(C)C)CC3)nc3ccccc32)c1 | 93.7%

Field: next compound
Consider the compound O=C(C1CC1)N1CCN(Cc2nc3ccccc3n2Cc2cccc(C(F)(F)F)c2)CC1 . State its measured viability at 24 h, 1 µM.
91.8%

----------
Molecular target: UniProt:P00352
Sequence (whole entry): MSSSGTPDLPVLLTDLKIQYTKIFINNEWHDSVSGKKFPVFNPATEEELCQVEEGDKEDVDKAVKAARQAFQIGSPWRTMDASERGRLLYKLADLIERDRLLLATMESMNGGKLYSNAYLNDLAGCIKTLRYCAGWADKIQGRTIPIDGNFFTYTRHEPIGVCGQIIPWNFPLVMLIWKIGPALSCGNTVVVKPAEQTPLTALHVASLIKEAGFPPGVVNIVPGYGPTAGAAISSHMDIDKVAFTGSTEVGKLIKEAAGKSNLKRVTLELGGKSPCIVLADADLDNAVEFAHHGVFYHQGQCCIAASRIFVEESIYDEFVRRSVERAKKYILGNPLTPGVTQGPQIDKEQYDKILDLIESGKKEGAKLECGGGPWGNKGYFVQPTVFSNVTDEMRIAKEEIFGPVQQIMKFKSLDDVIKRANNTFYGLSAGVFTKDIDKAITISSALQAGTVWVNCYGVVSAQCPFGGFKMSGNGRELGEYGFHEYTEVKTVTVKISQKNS
Experiment: Inhibition of human ALDH1A1 assessed as NADH formation using propionaldehyde as substrate at 10 uM by spectrophotometry
Binary classification by inhibition, with 60% as an inclusive lower bound for Condition met; all other cases are Condition not met.

Field: example entries. Status: answers known.
O=C(C1CC1)N1CCN(Cc2nc3ccccc3n2Cc2cccc(C(F)(F)F)c2)CC1 | Condition met
CC(C)CCn1c(OC2CCN(C(=O)C3CC3)CC2)nc2ccccc21 | Condition not met
Cc1cccc(Cn2c(CN3CCN(C(=O)C4CCC4)CC3)nc3ccccc32)c1 | Condition met
O=C(C1CC1)N1CCN(Cc2nc3ccccc3n2Cc2ccc(F)cc2)CC1 | Condition not met
CCc1ccc(C(=O)N2CCN(Cc3nc4ccccc4n3Cc3cccc(C)c3)CC2)cc1 | Condition met

Please check the record Cc1cccc(Cn2c(CN3CCN(C(=O)C4CC4)CC3)nc3ccccc32)c1 and state if its inhibition is at or above 60%.
Condition met

Please check the record Cc1ccccc1Cn1c(CN2CCN(C(=O)C3CC3)CC2)nc2ccccc21 and state if its inhibition is at or above 60%.
Condition not met

Please check the record Cc1cccc(Cn2c(CN3CCN(C(=O)c4ccc(C#N)cc4)CC3)nc3ccccc32)c1 and state if its inhibition is at or above 60%.
Condition not met

Please check the record O=C(C1CC1)N1CCN(Cc2nc3ccccc3n2Cc2ccccc2F)CC1 and state if its inhibition is at or above 60%.
Condition not met

Please check the record CC(C)=CCn1c(CN2CCN(C(=O)C3CC3)CC2)nc2ccccc21 and state if its inhibition is at or above 60%.
Condition met
